- System: UACC-257
- protocol-description: NCI tumour cell line growth inhibition, 48 h
Activity calls are given as the source filed them. No stated cut-off is given here; in the data, active = GI50 up to about 1.1 µM and inactive = higher. *1 amine or outer side, *2 acyl side, *3 side chain or, on linkers, in order; H or OH if unused. Where a SMILES comes first, the peptide text is derived from it. Bridges are numbered along the chain shown (N, C = ends). [ ]: non-standard residue; d: D form. The star is where a group is joined. ξ: configuration not given here. ξOrn(4,5-diOH) = O=C(C(CC(O)C(O)N[*:3])N[*:1])[*:2]; ξhTyr(βξ-OH,γξ-OH) = NC(C(=O)O)C(O)C(O)c1ccc(O)cc1; ξPro(3ξ-OH,4ξ-Me) = CC1CNC(C(=O)O)C1O; X55 = CCCCC/C=C/C/C=C\CCCCCCCC(=O)*; Hyp = O=C(O)[CH]1C[CH](O)CN1
Outcomes: yes = active, no = inactive

INSERT INTO results (compound, category) VALUES
  ('O=C(NC(=S)Nc1ccc([N+](=O)[O-])cc1)c1ccc2c(c1)Sc1ccccc1O2', 'no'),
  ('CCCCC/C=C/C/C=C\CCCCCCCC(=O)NC1CC(O)C(O)NC(=O)C2C(O)C(C)CN2C(=O)C(C(C)O)NC(=O)C(C(O)C(O)c2ccc(O)cc2)NC(=O)C2CC(O)CN2C(=O)C(C(C)O)NC1=O (stereo not drawn) (X55-[ξOrn(4,5-diOH)]T[Hyp][ξhTyr(βξ-OH,γξ-OH)]T[ξPro(3ξ-OH,4ξ-Me)]; lactam 1-C; configuration not given here)', 'no'),
  ('CCOC(=O)c1ccc(Nc2nc3cc(C(F)(F)F)ccc3nc2-c2ccccc2)cc1', 'no'),
  ('CC1OC(OC2C(O[C@H]3CC[C@@]4(C)C(=CC[C@H]5[C@@H]6C[C@@H]7O[C@]8(CC[C@@H](C)CO8)[C@@H](C)[C@@H]7[C@@]6(C)CC[C@@H]54)C3)OC(CO)C(OC3OC(CO)C(O)C3O)C2O)C(O)C(O)C1O (some centres undefined)', 'yes'),
  ('COC(=O)[C@H](CCSC)NC(=O)c1ccc(CNC(=O)/C(C)=C/c2ccccc2)cc1', 'no'),
  ('CN(C)c1ccc(/C=C(\C#N)C(=O)c2ccccc2)cc1Br', 'no'),
  ('CCC(C)CNC1=C(NC(C)=O)C(=O)c2ccccc2C1=O (centres undefined)', 'no'),
  ('CCN1C[C@]2(C)CC[C@H](O)C34C1C(C[C@@H]32)[C@@]1(O)CC[C@H]2C[C@@H]4[C@@H]1[C@H]2O', 'no'),
  ('CC(=O)Nc1ccc2nc(-c3cccc(Cl)c3)cc(O)c2c1', 'no'),
  ('CCOC(=O)c1nc2ccc(C(F)(F)F)cc2nc1Oc1ccc(OC)cc1', 'no'),
  ('ClC(Cl)(Cl)C1=N[C@H]2[C@H](Br)[C@@H]3O[C@@H](c4ccccc4)[C@H](c4ccccc4)O[C@@H]3[C@H]2O1', 'no'),
  ('O=c1c(NCc2ccccc2)c(C2(c3ccccc3F)SCCCS2)c1=O', 'no'),
  ('COc1ccc(NC2C(=O)C3(C)CCC2C3(C)C)cc1 (centres undefined)', 'no'),
  ('O=C(NNC(=O)/C(=C/c1cccc([N+](=O)[O-])c1)NC(=O)c1ccccc1)Nc1ccc(Cl)cc1', 'no'),
  ('COC(=O)C1(Cc2ccc3c(c2)CCC3)Cc2ccc3c(c2C1=O)CCC3 (centres undefined)', 'no'),
  ('COC(=O)c1cc2c3c(cc(NCCN)c2[nH]1)N(C(=O)c1cc2cc(OC)c(OC)c(OC)c2[nH]1)CC3CCl (centres undefined)', 'yes'),
  ('OC1(c2ccc(Cl)cc2)c2ccccc2C2=NCc3ccccc3CN21 (centres undefined)', 'no'),
  ('CC(=O)OC1C[C@@H](C)C2(CC(c3ccoc3)OC2=O)C2CCC(O)C3(CO3)C12CO (some centres undefined)', 'no'),
  ('COC(=O)c1ccccc1Nc1ccccc1C(=O)OC', 'no'),
  ('CC(C)(Cc1ccccc1)Cc1cc(O)ccc1O', 'no'),
  ('CCOC(=O)CCC(NC(=O)c1ccc(NCc2ccc3nc(-c4ccccc4)c(Cl)nc3c2)c2ccccc12)C(=O)OCC (centres undefined)', 'no'),
  ('O=C(CCNC12CC3CC(CC(C3)C1)C2)c1ccccc1', 'no'),
  ('CCOC(=N)/C(=C1\OC(=N)C(c2ccc(Cl)cc2)=C1O)c1ccc(Cl)cc1', 'no'),
  ('O=c1cc(NNc2cccc(F)c2)[nH]c(=S)[nH]1', 'no'),
  ('Nc1cc(N2CCCC2)nc(=O)n1Cc1ccccc1', 'no'),
  ('CC(C)(C)c1ccc(NS(=O)(=O)c2ccc(N)cc2)cc1', 'no'),
  ('O=c1[nH]c(-c2ccccc2)nc2ccc(Cl)cc12', 'no'),
  ('CC1=NN(c2ccccc2)C(=O)/C1=C1\SC(c2ccccc2)(c2ccccc2)c2ccccc21', 'no'),
  ('O=C(N/C=C1\C(=O)Oc2ccccc2C1=O)NC1CCCCC1', 'no'),
  ('O=C1COc2cc(N3CCN(c4cccc(C(F)(F)F)c4)CC3)ccc2N1', 'no'),
  ('Cc1nc2c(cc1C(=O)NN)c(=O)n(C)c(=O)n2C', 'no'),
  ('CSc1ccccc1NC1=NCCO1', 'no'),
  ('N#C[BH2-][n+]1ccc(C(=O)NNCC(F)(F)F)cc1', 'no'),
  ('Cc1cn(C2CCN(CC3COC(C)(C)O3)O2)c(=O)[nH]c1=O (centres undefined)', 'no');

All figures here come from ChEMBL document CHEMBL1201862.
